Recorded measurements of MIC, one per entry
Test system: Mycobacterium tuberculosis
Test: Inhibitory activity against Mycobacterium tuberculosis H37Rv
Format: functional

These solved cases illustrate the format of a correct answer.
| compound | MIC |
| --- | --- |
| CC1=C(O)C(C)(CC2CC2)SC1=O (configuration not stated) | > 1000 µM |
| CC1=C(O)C(C)(Cc2ccc(F)cc2)SC1=O (configuration not stated) | > 1000 µM |
| CCC(C)C1(C)SC(O)=C(C)C1=O (configuration not stated) | > 1000 µM |

stdin: Given the entry CC1=C(O)C(C)(Cc2ccc([N+](=O)[O-])cc2)SC1=O (configuration not stated) , report its measured MIC.
stdout: > 1000 µM

stdin: So what does the record say about MIC for CCCCCCCCCC1(C)SC(O)=C(C)C1=O (configuration not stated) ?
stdout: 500 µM

stdin: What value of MIC has been recorded for this entry: CC1=C(O)C(C)(Cc2cccc(C(F)(F)F)c2)SC1=O (configuration not stated)
stdout: 1000 µM

stdin: For CC1=C(O)SC(C)(CC(C)C)C1=O (configuration not stated) , what is its reported MIC?
stdout: > 1000 µM

stdin: Need MIC, item CC1=C(O)C(C)(Cc2ccc(C)cc2)SC1=O (configuration not stated)
stdout: > 1000 µM

stdin: What does the record list as MIC for CC1=C(O)C(C)(Cc2ccc(Cl)cc2Cl)SC1=O (configuration not stated) ?
stdout: 500 µM

stdin: Please report the recorded MIC for C=CC(C)CC1(C)SC(O)=C(C)C1=O (configuration not stated) .
stdout: > 1000 µM

stdin: Any idea what MIC was measured for CCCCCCCCCCCCC1(C)SC(O)=C(C)C1=O (configuration not stated) ?
stdout: 1000 µM

stdin: MIC lookup needed for CC1=C(O)SC(C)C1=O (configuration not stated) , thanks.
stdout: > 1000 µM

stdin: Using the record for C=CC(C)C[C@@]1(C)SC(O)=C(C)C1=O (some centres not stated) , report its MIC.
stdout: > 1000 µM

stdin: Query: MIC; subject: CCCCCC1(C)SC(O)=C(C)C1=O (configuration not stated)
stdout: 500 µM

stdin: Data request, read-out MIC, for `CC/C(C)=C/[C@@]1(C)SC(O)=C(C)C1=O`
stdout: > 1000 µM

stdin: I have this compound here, CCC(CC)CC1(C)SC(O)=C(C)C1=O (configuration not stated) , and I need its recorded MIC.
stdout: 1000 µM

stdin: Given the entry CC1=C(O)C(C)(Cc2cccc(C)c2)SC1=O (configuration not stated) , report its measured MIC.
stdout: 1000 µM

stdin: For the compound shown here, CC/C=C/CC1(C)SC(O)=C(C)C1=O (configuration not stated) , give the reported MIC.
stdout: > 1000 µM

stdin: Would you mind telling me what MIC value was observed for CC1=C(O)C(C)(Cc2c(Cl)cccc2Cl)SC1=O (configuration not stated) ?
stdout: 500 µM

stdin: For COc1cc(CC2(C)SC(O)=C(C)C2=O)cc(OC)c1 (configuration not stated) , what is its reported MIC?
stdout: > 1000 µM

stdin: For the compound shown here, CC1=C(O)C(C)(CC2CCCCC2)SC1=O (configuration not stated) , give the reported MIC.
stdout: > 1000 µM

stdin: For CC(C)=CCC/C(C)=C/CC/C(C)=C/CC1(C)SC(O)=C(C)C1=O (configuration not stated) , what is its reported MIC?
stdout: > 1000 µM
